Measured IC50, listed per entry.
Target Desc: ghrelin receptor (Homo sapiens, UniProt Q92847)
Sequence (Q92847 whole entry): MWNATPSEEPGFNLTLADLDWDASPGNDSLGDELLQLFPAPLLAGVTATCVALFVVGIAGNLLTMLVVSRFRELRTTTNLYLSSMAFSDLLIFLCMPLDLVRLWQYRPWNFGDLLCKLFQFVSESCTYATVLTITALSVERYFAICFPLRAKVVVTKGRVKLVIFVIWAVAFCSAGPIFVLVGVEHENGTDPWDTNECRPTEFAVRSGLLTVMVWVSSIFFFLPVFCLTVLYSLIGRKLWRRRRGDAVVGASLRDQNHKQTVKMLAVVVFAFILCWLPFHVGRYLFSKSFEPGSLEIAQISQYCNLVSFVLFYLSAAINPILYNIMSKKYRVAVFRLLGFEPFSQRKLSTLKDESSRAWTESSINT
Assay Overview: Aequorin functional assay (ghrelin receptor), Example 3
Type: cell-based
Set-up: host or cells: CHO-K1 cells co-expressing Gα16 and mitochondrially targeted Aequorin
Test Context: antagonist testing vs ghrelin at EC80 (3.7 nM)

// IC50 value for CCC(C)[C@@H]1NCCOc2ccccc2CCCNC(=O)[C@@H](Cc2ccccc2)NC(=O)[C@H](CCO)N(C)C1=O (some centres unmarked) [Compound 506] : 100 to 1500 nM

// IC50 value for CCC(C)[C@@H]1NCCOc2ccccc2/C=C/CNC(=O)[C@@H](Cc2ccc(F)cc2)NC(=O)[C@H](C(C)O)N(C)C1=O (some centres unmarked) [Compound 504] : 1 to 100 nM

// IC50 value for CCC(C)[C@@H]1NCCOc2ccccc2/C=C/CNC(=O)[C@@H](Cc2ccccc2)NC(=O)[C@H](C(C)O)N(C)C1=O (some centres unmarked) [Compound 502] : 1 to 100 nM

// IC50 value for CCC(C)[C@@H]1NCCOc2ccccc2/C=C\CNC(=O)[C@@H](Cc2ccc(F)cc2)NC(=O)[C@H](C(C)O)N(C)C1=O (some centres unmarked) [Compound 508] : 100 to 1500 nM

// IC50 value for CC(O)[C@H]1C(=O)N[C@H](Cc2ccc(F)cc2)C(=O)NCCCc2ccccc2O[C@H](C)CN[C@@H](C2CC2)C(=O)N1C (some centres unmarked) [Compound 505] : 100 to 1500 nM

// IC50 value for CC[C@@H](C)[C@H]1NCCOc2ccccc2CCCNC(=O)[C@@H](Cc2ccccc2)NC(=O)[C@H]([C@H](C)O)N(C)C1=O [Compound 509] : > 1500 nM

// IC50 value for CCC(C)[C@@H]1NCCOc2ccccc2CCCNC(=O)[C@@H](Cc2ccccc2)NC(=O)[C@@H](CO)N(C)C1=O (stereo in doubt) [Compound 152] : 100 to 1500 nM

// IC50 value for CCC(C)[C@@H]1NCCOc2ccccc2CCCNC(=O)[C@@H](Cc2ccccc2)NC(=O)[C@H](C(C)O)N(C)C1=O (some centres unmarked) [Compound 503] : 1 to 100 nM

---

Target Desc: ghrelin receptor (Homo sapiens, UniProt Q92847)
Assay Overview: Inverse agonist assay, Example 4
Assay type: cell-based
Test Context: inverse agonist activity
Assay Readout: IC50

molecule="CCC(C)[C@@H]1NCCOc2ccccc2CCCNC(=O)[C@@H](Cc2ccccc2)NC(=O)[C@H](CCO)N(C)C1=O (stereo partly drawn)" target_desc="ghrelin receptor (Homo sapiens, UniProt Q92847)" assay_readout=IC50 result="> 10000 nM"
molecule="CCC(C)[C@@H]1NCCOc2ccccc2/C=C/CNC(=O)[C@@H](Cc2ccccc2)NC(=O)[C@H](C(C)O)N(C)C1=O (stereo partly drawn)" target_desc="ghrelin receptor (Homo sapiens, UniProt Q92847)" assay_readout=IC50 result="1 to 100 nM"
molecule="CCC(C)[C@@H]1NCCOc2ccccc2CCCNC(=O)[C@@H](Cc2ccccc2)NC(=O)[C@@H](CO)N(C)C1=O (stereo in doubt)" target_desc="ghrelin receptor (Homo sapiens, UniProt Q92847)" assay_readout=IC50 result="> 10000 nM"
molecule="CC(O)[C@H]1C(=O)N[C@H](Cc2ccc(F)cc2)C(=O)NCCCc2ccccc2O[C@H](C)CN[C@@H](C2CC2)C(=O)N1C (stereo partly drawn)" target_desc="ghrelin receptor (Homo sapiens, UniProt Q92847)" assay_readout=IC50 result="100 to 1000 nM"
molecule="CCC(C)[C@@H]1NCCOc2ccccc2CCCNC(=O)[C@@H](Cc2ccccc2)NC(=O)[C@H](C(C)O)N(C)C1=O (stereo partly drawn)" target_desc="ghrelin receptor (Homo sapiens, UniProt Q92847)" assay_readout=IC50 result="100 to 1000 nM"

Next item in the queue.
// IC50 value for CCC(C)[C@@H]1NCCOc2ccccc2/C=C/CNC(=O)[C@@H](Cc2ccc(F)cc2)NC(=O)[C@H](C(C)O)N(C)C1=O (stereo partly drawn) : 100 to 1000 nM

---

Target Desc: human ghrelin receptor (hGHS-R1a) (Homo sapiens)
Sequence (Q92847 whole entry): as above
Measured Ki, listed per entry.

molecule=CC[C@@H](C)[C@H]1NCCOc2ccccc2CCCNC(=O)[C@@H](Cc2ccccc2)NC(=O)[C@H]([C@H](C)O)N(C)C1=O target_desc="human ghrelin receptor (hGHS-R1a) (Homo sapiens)" assay_readout=Ki result="100 to 1000 nM"
molecule="CCC(C)[C@@H]1NCCOc2ccccc2CCCNC(=O)[C@@H](Cc2ccccc2)NC(=O)[C@@H](COC(C)(C)C)NC1=O (stereo partly shown)" target_desc="human ghrelin receptor (hGHS-R1a) (Homo sapiens)" assay_readout=Ki result="1000 to 10000 nM"
molecule="CCC(C)[C@@H]1NCCOc2ccccc2/C=C/CNC(=O)[C@H](Cc2ccccc2)NC(=O)[C@@H](C)NC1=O (stereo partly shown)" target_desc="human ghrelin receptor (hGHS-R1a) (Homo sapiens)" assay_readout=Ki result="100 to 1000 nM"
molecule=CCC[C@@H]1NCCOc2ccccc2CCCNC(=O)[C@@H](Cc2ccccc2)NC(=O)[C@H](C)N(C)C1=O target_desc="human ghrelin receptor (hGHS-R1a) (Homo sapiens)" assay_readout=Ki result="100 to 1000 nM"
molecule="CCC(C)[C@@H]1NCCOc2ccccc2/C=C\\CNC(=O)[C@@H](Cc2ccc(F)cc2)NC(=O)[C@H](C(C)O)N(C)C1=O (stereo partly shown)" target_desc="human ghrelin receptor (hGHS-R1a) (Homo sapiens)" assay_readout=Ki result="1 to 100 nM"

Response field Ki (human ghrelin receptor (hGHS-R1a) (Homo sapiens)) for item CC(O)[C@H]1C(=O)N[C@H](Cc2ccc(F)cc2)C(=O)NCCCc2ccccc2O[C@H](C)CN[C@@H](C2CC2)C(=O)N1C (stereo partly shown) : 100 to 1000 nM

Response field Ki (human ghrelin receptor (hGHS-R1a) (Homo sapiens)) for item CCC(C)[C@@H]1NCCOc2ccccc2CCCNC(=O)[C@@H](Cc2ccccc2)NC(=O)[C@@H](C)NC1=O (stereo partly shown) : 100 to 1000 nM

Response field Ki (human ghrelin receptor (hGHS-R1a) (Homo sapiens)) for item CCC(C)[C@@H]1NCCOc2ccccc2/C=C/CNC(=O)[C@@H](Cc2ccc(F)cc2)NC(=O)[C@H](C(C)O)N(C)C1=O (stereo partly shown) : 1 to 100 nM

Response field Ki (human ghrelin receptor (hGHS-R1a) (Homo sapiens)) for item CCC(C)[C@@H]1NCCOc2ccccc2CCCNC(=O)[C@@H](Cc2ccc(F)cc2)NC(=O)[C@@H](COCc2ccccc2)N(C)C1=O (stereo partly shown) : 100 to 1000 nM

Response field Ki (human ghrelin receptor (hGHS-R1a) (Homo sapiens)) for item CCC[C@@H]1NCCOc2ccccc2CCCNC(=O)[C@@H](Cc2ccccc2)NC(=O)[C@@H](C)NC1=O : 100 to 1000 nM

Response field Ki (human ghrelin receptor (hGHS-R1a) (Homo sapiens)) for item CCC(C)[C@@H]1NCCOc2ccccc2CCCNC(=O)[C@@H](Cc2ccccc2)NC(=O)[C@@H](CO)NC1=O (stereo partly shown) : 1000 to 10000 nM

Response field Ki (human ghrelin receptor (hGHS-R1a) (Homo sapiens)) for item CCC[C@@H]1NCCOc2ccccc2CCCNC(=O)[C@@H](Cc2ccccc2)NC(=O)[C@H](C)NC1=O : 1000 to 10000 nM

Response field Ki (human ghrelin receptor (hGHS-R1a) (Homo sapiens)) for item CCC(C)[C@@H]1NCCOc2ccccc2/C=C/CNC(=O)[C@@H](Cc2ccccc2)NC(=O)[C@H](C(C)O)N(C)C1=O (stereo partly shown) : 1 to 100 nM

Where these numbers come from: patent US20090275648A1
